All values here come from paper PMC11944986.

- protocol.notes: Solubility of GL-II-73 in various media, shake flask method
- Type: physicochemical
- experimental.parameters: fish oil, oil or lipid, thermodynamic from solid
observable: solubility (µg/mL)
Give bare numbers, in µg/mL.

q: Query (compound): `C#Cc1ccc2c(c1)C(c1ccccc1F)=N[C@H](C)c1c(C(=O)N(C)C)ncn1-2` ; field requested: solubility
a: 2400

====

- protocol.notes: Solubility of GL-II-73 in various media, shake flask method
- Type: physicochemical
- experimental.parameters: benzyl alcohol, organic solvent or mixture, thermodynamic from solid
observable: solubility

q: # get_value(readout='solubility', item= `C#Cc1ccc2c(c1)C(c1ccccc1F)=N[C@H](C)c1c(C(=O)N(C)C)ncn1-2` )
a: > 534 mg/mL
